species: Rattus norvegicus; test: Open TG-GATES - Regimen: Single; type: toxicity, organism-based, Sprague-Dawley; set-up: regimen Single, gender Male, age 6 weeks; conditions: in vivo, po, 0 mg/kg, 6 h, tissue Blood, route gavage, dose level Control
MEASUREMENT_LABEL: PT

MOLECULE	RESULT
C=CCO [ALLYL ALCOHOL]	12.2 s
COc1ccc(O)c(C(C)(C)C)c1.COc1ccc(O)cc1C(C)(C)C [BUTYLATED HYDROXYANISOLE]	12.6 s
CS(=O)(=O)Nc1ccc([N+](=O)[O-])cc1Oc1ccccc1 [NIMESULIDE]	12.5 s
Cc1cnc(NC(=O)C2=C(O)c3ccccc3S(=O)(=O)N2C)s1 [MELOXICAM]	12.6 s
Cc1cccc(Nc2cc(Cl)nc(SCC(=O)O)n2)c1C [PIRINIXIC ACID]	12.2 s
COc1ccc(Cl)cc1C(=O)NCCc1ccc(S(=O)(=O)NC(=O)NC2CCCCC2)cc1 [GLYBURIDE]	12.5 s
S=C=Nc1cccc2ccccc12 [1-NAPHTHYLISOTHIOCYANATE]	11.8 s
Cn1cnc([N+](=O)[O-])c1Sc1ncnc2nc[nH]c12 [AZATHIOPRINE]	15.7 s
O=C1NC(=O)C(c2ccccc2)(c2ccccc2)N1 [PHENYTOIN]	14.1 s

---

Listing of recorded TBIL by entry.
species on record: Rattus norvegicus; assay: Open TG-GATES - Regimen: Daily Repeat; format: toxicity, organism-based, Sprague-Dawley; parameters: regimen Daily Repeat, gender Male, age 6 weeks; details: in vivo, po, 0 mg/kg, […], tissue Plasma, route gavage, dose level Control, time 7 day
MEASUREMENT_LABEL: TBIL (mg/dL)

COMPOUND	MEASUREMENT_LABEL	RESULT
O=C1CN(/N=C/c2ccc(-c3ccc([N+](=O)[O-])cc3)o2)C(O)=N1 [DANTROLENE]	TBIL	0.3
Cn1cnc([N+](=O)[O-])c1Sc1ncnc2nc[nH]c12 [AZATHIOPRINE]	TBIL	0.004
COc1ccc(Cl)cc1C(=O)NCCc1ccc(S(=O)(=O)NC(=O)NC2CCCCC2)cc1 [GLYBURIDE]	TBIL	0.2
C=CCO [ALLYL ALCOHOL]	TBIL	0.2
Cn1c(=O)c2c(ncn2C)n(C)c1=O [CAFFEINE]	TBIL	0
Cc1cccc(Nc2cc(Cl)nc(SCC(=O)O)n2)c1C [PIRINIXIC ACID]	TBIL	0.036

---

organism: Rattus norvegicus; test: Open TG-GATES - Regimen: Single; format: toxicity, organism-based, Sprague-Dawley; set-up: regimen Single, gender Male, age 6 weeks; conditions: in vivo, po, 0 mg/kg, 24 h, tissue Blood, route gavage, dose level Control
Listing of recorded Ret by entry.

COMPOUND	Ret, %
Cn1cnc([N+](=O)[O-])c1Sc1ncnc2nc[nH]c12	8.8
Cc1cccc(Nc2cc(Cl)nc(SCC(=O)O)n2)c1C	7.3
CS(=O)(=O)Nc1ccc([N+](=O)[O-])cc1Oc1ccccc1 [NIMESULIDE]	10.9
COc1ccc(O)c(C(C)(C)C)c1.COc1ccc(O)cc1C(C)(C)C [BUTYLATED HYDROXYANISOLE]	7
CNCCC(Oc1ccc(C(F)(F)F)cc1)c1ccccc1.Cl (stereo unspecified) [FLUOXETINE HYDROCHLORIDE]	7
COc1ccc(Cl)cc1C(=O)NCCc1ccc(S(=O)(=O)NC(=O)NC2CCCCC2)cc1 [GLYBURIDE]	7.7
O=C1CN(/N=C/c2ccc(-c3ccc([N+](=O)[O-])cc3)o2)C(O)=N1	12.5
C=CCO	6.2
O=C1NC(=O)C(c2ccccc2)(c2ccccc2)N1	7.8
S=C=Nc1cccc2ccccc12 [1-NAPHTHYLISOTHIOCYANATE]	6.6
Cc1cnc(NC(=O)C2=C(O)c3ccccc3S(=O)(=O)N2C)s1	6.4

---

species: Rattus norvegicus; test: Open TG-GATES - Regimen: Daily Repeat; type: toxicity, organism-based, Sprague-Dawley; set-up: regimen Daily Repeat, gender Male, age 6 weeks; settings: in vivo, po, 0 mg/kg, […], tissue Plasma, route gavage, dose level Control, time 7 day

COMPOUND	TG (mg/dL)
C=CCO [ALLYL ALCOHOL]	124.4
Cc1cnc(NC(=O)C2=C(O)c3ccccc3S(=O)(=O)N2C)s1 [MELOXICAM]	110.2
O=P1(N(CCCl)CCCl)NCCCO1 (stereo unspecified) [CYCLOPHOSPHAMIDE ANHYDROUS]	98.2
O=C1CN(/N=C/c2ccc(-c3ccc([N+](=O)[O-])cc3)o2)C(O)=N1 [DANTROLENE]	138.8
Cn1cnc([N+](=O)[O-])c1Sc1ncnc2nc[nH]c12 [AZATHIOPRINE]	118.4
Cn1c(=O)c2c(ncn2C)n(C)c1=O [CAFFEINE]	118.6

---

species: Rattus norvegicus; experiment: Open TG-GATES - Regimen: Daily Repeat; assay type: toxicity, organism-based, Sprague-Dawley; set-up: regimen Daily Repeat, gender Male, age 6 weeks; details: in vivo, po, 0 mg/kg, […], tissue Kidney, route gavage, dose level Control, time 7 day

COMPOUND	MEASUREMENT_UNITS	KIDNEY_R
COc1ccc(O)c(C(C)(C)C)c1.COc1ccc(O)cc1C(C)(C)C [BUTYLATED HYDROXYANISOLE]	g	1
Cn1c(=O)c2c(ncn2C)n(C)c1=O	g	1.1
Cc1cnc(NC(=O)C2=C(O)c3ccccc3S(=O)(=O)N2C)s1	g	1.1
O=P1(N(CCCl)CCCl)NCCCO1 (stereo unspecified) [CYCLOPHOSPHAMIDE ANHYDROUS]	g	1.1
O=C1NC(=O)C(c2ccccc2)(c2ccccc2)N1	g	1
CS(=O)(=O)Nc1ccc([N+](=O)[O-])cc1Oc1ccccc1 [NIMESULIDE]	g	1.1

---

species: Rattus norvegicus; test: Open TG-GATES - Regimen: Single; format: toxicity, organism-based, Sprague-Dawley; design: regimen Single, gender Male, age 6 weeks; conditions: in vivo, po, 0 mg/kg, 3 h, tissue Plasma, route gavage, dose level Control

COMPOUND	IP (mg/dL)
C=CCO	9.1
Cn1cnc([N+](=O)[O-])c1Sc1ncnc2nc[nH]c12	8.2
O=C1CN(/N=C/c2ccc(-c3ccc([N+](=O)[O-])cc3)o2)C(O)=N1	8.7
S=C=Nc1cccc2ccccc12 [1-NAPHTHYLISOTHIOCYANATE]	9.4
COc1ccc(O)c(C(C)(C)C)c1.COc1ccc(O)cc1C(C)(C)C [BUTYLATED HYDROXYANISOLE]	8.9

---

species on record: Rattus norvegicus; test: Open TG-GATES - Regimen: Single; format: toxicity, organism-based, Sprague-Dawley; design: regimen Single, gender Male, age 6 weeks; conditions: in vivo, po, 0 mg/kg, 6 h, tissue Kidney, route gavage, dose level Control
Listing of recorded KIDNEY_R by entry.

COMPOUND	KIDNEY_R
COc1ccc(O)c(C(C)(C)C)c1.COc1ccc(O)cc1C(C)(C)C [BUTYLATED HYDROXYANISOLE]	0.9 g
Cc1cnc(NC(=O)C2=C(O)c3ccccc3S(=O)(=O)N2C)s1	1 g
CNCCC(Oc1ccc(C(F)(F)F)cc1)c1ccccc1.Cl (stereo unspecified) [FLUOXETINE HYDROCHLORIDE]	1 g
O=C1CN(/N=C/c2ccc(-c3ccc([N+](=O)[O-])cc3)o2)C(O)=N1	0.9 g
S=C=Nc1cccc2ccccc12 [1-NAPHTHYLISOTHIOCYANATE]	1 g
Cc1cccc(Nc2cc(Cl)nc(SCC(=O)O)n2)c1C	0.8 g
CS(=O)(=O)Nc1ccc([N+](=O)[O-])cc1Oc1ccccc1 [NIMESULIDE]	0.9 g
O=C1NC(=O)C(c2ccccc2)(c2ccccc2)N1	0.9 g
C=CCO	1 g
Cn1cnc([N+](=O)[O-])c1Sc1ncnc2nc[nH]c12	0.9 g
COc1ccc(Cl)cc1C(=O)NCCc1ccc(S(=O)(=O)NC(=O)NC2CCCCC2)cc1 [GLYBURIDE]	1 g

---

species: Rattus norvegicus; assay: Open TG-GATES - Regimen: Daily Repeat; format: toxicity, organism-based, Sprague-Dawley; design: regimen Daily Repeat, gender Male, age 6 weeks; settings: in vivo, po, 0 mg/kg, […], tissue Plasma, route gavage, dose level Control, time 14 day
With a cut-off of 7 mg/dL, any IP strictly below it is called True; any IP meeting it or above is called False.

COMPOUND	CLASSIFICATION
O=C1CN(/N=C/c2ccc(-c3ccc([N+](=O)[O-])cc3)o2)C(O)=N1	False
Cn1cnc([N+](=O)[O-])c1Sc1ncnc2nc[nH]c12	True
COc1ccc(Cl)cc1C(=O)NCCc1ccc(S(=O)(=O)NC(=O)NC2CCCCC2)cc1 [GLYBURIDE]	True
COc1ccc(O)c(C(C)(C)C)c1.COc1ccc(O)cc1C(C)(C)C [BUTYLATED HYDROXYANISOLE]	True
Cn1c(=O)c2c(ncn2C)n(C)c1=O	False
